- ASSAY_PROTOCOL: NCI Yeast Anticancer Drug Screen. Data for the rad50EPP+ strain (AID 151);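 also: 0% = growth of vehicle-treated control cultures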
- MEASUREMENT_CONDITIONS: S. cerevisiae rad50 mutant strain, at 11.0 µM, active compounds read high
- Experimental: Growth inhibition of yeast strains with defined genetic alterations is measured as a screen for potential anti-cancer activity. Selected strains with alterations in DNA damage repair or cell cycle control were exposed to compounds and growth inhibition was measured relative to vehicle treated controls. The strain used in this assay is rad50EPP+
About 79,000 compounds went through this panel and 15% of them were active in at least one assay; those are over-represented in the sample as a whole.
Lab note: compare growth inhibition against 20%. Equal or greater, write true (1). Smaller, write false (0).

## Task # bool: growth inhibition of "CCN(CC)C(C)(C)C(=O)/C=C/c1ccccc1" >= 20%
## Result false (0)

## Task Reported growth inhibition reaches at least 20% for "CCc1ccc(NS(=O)(=O)c2ccccc2)c([N+](=O)[O-])c1" ?
## Result true (1)

## Task Assess whether reported growth inhibition for "CCC(=O)c1cccc2ccccc12" sits at 20% or higher.
## Result true (1)

## Task Given O=C1C2C(C(=O)N1c1ccc(OCc3ccccc3)cc1)C1c3ccccc3C2C2CCCCN21 (stereo not drawn) , state whether its growth inhibition is at least 20%.
## Result false (0)

## Task Does the compound C=CC(C)(O)CCC1C(=C)C(O)CC2C(C)(C)CCCC12C (stereo not drawn) have recorded growth inhibition that is 20% or more?
## Result false (0)

## Task // inclusive: growth inhibition at least 20%? input: "NC(=O)NN=C(CS)CS"
## Result false (0)

## Task Form field: growth inhibition at least 20%? Entry: CCCCN1C(=O)N(c2ccc(OCC)cc2)C2N(CCCC)C1C(C)(C)C2(C)C (stereo not drawn)
## Result false (0)

## Task Check the entry "CCOC(=O)c1cc(-c2ccc(Cl)cc2)c([N+](=O)[O-])n1C" : does growth inhibition equal or exceed 20%?
## Result true (1)

## Task # check: growth inhibition of "COC(=O)c1cc(-c2ccc(C)cc2)[nH]c(=O)c1C#N" is greater than or equal to 20%
## Result false (0)

## Task Decide: is the reported value of growth inhibition for "N#CN1C2CCC1CC(=O)C2" equal to or greater than 20%?
## Result false (0)

## Task Identify whether the reported growth inhibition of the following compound is 20% or greater: "CC(=O)Oc1ccc2c(c1)Cc1cc(N=C3C=CC(=O)O3)ccc1-2"
## Result true (1)

## Task Quick check, growth inhibition >= 20%? CCCCCCCCCCCCCC[N+](C)(CC(=O)[O-])Cc1ccccc1 (stereo not drawn)
## Result true (1)

## Task Item "CN=C(N)N/N=C/c1ccc2c(c1)Cc1ccccc1-2" with growth inhibition of 20% or above?
## Result true (1)

## Task Please check the record "N#CSc1ccc(S(N)(=O)=O)cc1" and state if its growth inhibition is at or above 20%.
## Result false (0)

## Task Is growth inhibition for N#CC(C(=O)Nc1ccccc1)C1=C(Cl)C(=O)c2ccccc2C1=O (stereo not drawn) at or above 20%?
## Result true (1)

## Task # bool: growth inhibition of "CCOC(=O)c1cnc2c(C(F)(F)F)cccc2c1N=[N+]=[N-]" >= 20%
## Result false (0)

## Task I'd appreciate it if you could say whether CN1c2ccc(Cl)cc2C(=O)NC1c1ccc([N+](=O)[O-])s1 (stereo not drawn) has growth inhibition at least equal to 20%.
## Result false (0)

###

- ASSAY_PROTOCOL: NCI Yeast Anticancer Drug Screen. Data for the rad50 strain (AID 155);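 also: 0% = growth of vehicle-only cultures of the same strain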
- MEASUREMENT_CONDITIONS: S. cerevisiae rad50 strain growth inhibition; at 3.7 µM
The panel holds about 79,000 compounds, 15% with a hit somewhere; the sample as a whole holds those more often. Calls of active or inactive are those of the source. No stated cut-off is given here; in the data, active means growth inhibition above about 70%; inactive means the rest.
Write down the outcome that applies. Available outcomes: class 1 for active, class 0 for inactive

## Task Lab log entry: "NC(=S)N/N=C\c1nccc2ccccc12" — outcome as called in the assay?
## Result class 0

## Task // param item: "CCCCCCCCCCCCCCCCCCNC" ; yields the recorded call
## Result class 0

## Task Which outcome was entered for the compound "CCN(CC)C(C)(C)C(=O)/C=C/c1ccccc1" in this test?
## Result class 0

## Task Tell me the assay call for CC(O)C(O)C(O)C(/C=N\Nc1ccccc1)=N/Nc1ccccc1 (stereo not drawn) please.
## Result class 0

## Task // outcome(item) with item = CC(Br)C(=O)c1ccc2cc(Br)c3ccccc3c2c1 (stereo not drawn)
## Result class 0

## Task Just curious, what result did "S=C(S)NN1CCOCC1" get here?
## Result class 0

## Task GET /call?item= "O=C1c2cc([N+](=O)[O-])ccc2-c2cccc(F)c21" returns the recorded outcome of this test.
## Result class 0

## Task Called result for O=C1OC(=O)C2CCCC3CCCC1C32 (stereo not drawn)
## Result class 0

## Task Which result was noted for this compound in the test: "COP(=O)(OC)/C(=C\C1=CN(C(c2ccccc2)(c2ccccc2)c2ccccc2)CN1)NC=O"
## Result class 0

## Task Outcome logged for "O=C(O)c1ccccc1-c1ccccc1C(=O)Nc1ccc2c(c1)Cc1ccccc1-2" in this assay:
## Result class 0

## Task Write down the call the test reported for this compound. Item: "COc1ccc(/C=C/C(=O)C(C)(C)Br)cc1"
## Result class 1

## Task Test call for this compound, please: "CCOC(=O)c1cnc2c(C(F)(F)F)cccc2c1N=[N+]=[N-]"
## Result class 0

## Task Just curious, what result did Nc1ccccc1CC(O)C(=O)O (stereo not drawn) get here?
## Result class 0

###

- ASSAY_PROTOCOL: NCI Yeast Anticancer Drug Screen. Data for the CLN2oe strain (AID 163);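 also: 0% = growth of vehicle-only control cultures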
- MEASUREMENT_CONDITIONS: S. cerevisiae CLN2oe strain, at 33.0 µM, active compounds read high
This is part of a sample that, as a whole, favours compounds with a hit. Of some 79,000 tested, about 15% had one in any assay.
Hi all, reminder that labels come from growth inhibition, split as category 1 = under 30%, category 2 = from 30% up to 90%, category 3 = 90% and over

## Task // bin(item) where item = "Cc1c(C(=O)C(=O)c2ccccc2)c(C)c(C(=O)C(=O)c2ccccc2)c(C)c1C(=O)C(=O)c1ccccc1"
## Result category 1

## Task // bin(item) where item = "Cn1c(=O)c(-c2ccccc2)c(N=[N+]=[N-])c2ccccc21"
## Result category 3

## Task Which class does "c1ccc(-c2ccnc3c2ccc2c(-c4ccccc4)ccnc23)cc1" fall in?
## Result category 3

## Task State the class of the compound shown: "CCCc1cc(C(=O)OCC)cc(CCC)c1O"
## Result category 1

## Task Place this compound in its band: "CN(C)c1nc2sc3c(c2c(=O)o1)CCCC3"
## Result category 1

## Task The entry to classify is "O=C(CCCN1CCC(O)(c2ccc(Cl)cc2)CC1)c1ccc(F)cc1" ; which class holds it?
## Result category 2

## Task Record "COc1ccc(NC(=S)N/N=C(\c2ccccc2)c2ccccn2)cc1" — which class?
## Result category 2

## Task For this compound, which bin applies? "COc1cccc2nc3ccccc3nc12"
## Result category 2

## Task Band for the recorded growth inhibition of "CC(=O)ON1C(=O)c2cccc3cccc(c23)C1=O" ?
## Result category 2

## Task Dear colleague, I would appreciate it if you could identify the bin for "COC(=O)C1=C(C)NC(C)=C(C(=O)OC)C1c1cccc(/[N+]([O-])=C/c2ccccc2)c1" and reply at your convenience.
## Result category 2

## Task Field: class (growth inhibition) — entry: N#CC(C(=O)Nc1ccccc1)C1=C(Cl)C(=O)c2ccccc2C1=O (configuration not stated)
## Result category 3

## Task Into which category would you place "CSc1nc(=S)[nH]c2c1c(C)nn2-c1ccccc1" ?
## Result category 1

## Task Kindly identify the class of CC(C)=CC(=O)O[C@@H]1CC(C)(C)CC2C3=CCC4[C@]56CC[C@](O)(OC5)C(C)(C)C6CC[C@@]4(C)C3(C)CC[C@]21C(=O)O (some centres not stated) .
## Result category 3

## Task Which category does the recorded growth inhibition put "CC(=O)Nc1ccc(/C=C(\C#N)c2ccc(C)cc2)cc1" in?
## Result category 1

## Task Band of "Cc1ccc(S(=O)(=O)Oc2cc(Cl)c(Cl)cc2Cl)cc1" ?
## Result category 1

## Task Which band does "O=C(c1cc(Br)ccc1O)c1cc(Br)ccc1O" fall in?
## Result category 3

###

- ASSAY_PROTOCOL: NCI Yeast Anticancer Drug Screen. Data for the mec2-1 strain (AID 157)
- MEASUREMENT_CONDITIONS: S. cerevisiae mec2-1 strain, at 3.7 µM, active compounds read high
The panel holds about 79,000 compounds, 15% with a hit somewhere; the sample as a whole holds those more often.
The label depends only on growth inhibition: 1.0 if it is at least -10%, 0.0 if it is smaller.

## Task Tell me whether growth inhibition is at least -10% here: "N/C(=N\OC(=O)NC(Cl)=C(Cl)Cl)c1cc(C(F)(F)F)cc(C(F)(F)F)c1"
## Result 0.0

## Task Kindly determine if growth inhibition recorded for COc1cc(C2C3=C(COC3=O)Oc3cc4c(cc32)OCO4)ccc1O (stereo not given) is above or exactly -10%.
## Result 1.0

## Task Identify whether the reported growth inhibition of the following compound is -10% or greater: "COCCOC(=O)CCn1cc(F)c(=O)[nH]c1=O"
## Result 1.0

## Task Exam item: decide whether the reported growth inhibition for C=CCC1=C(C)C(OC(=O)/C=C/c2ccccc2)CC1=O (stereo not given) is at least -10%.
## Result 1.0

## Task Item "CCN(CC)CCNc1ccc([N+](=O)[O-])c2nc3ccc(OC)cc3c(N)c12" with growth inhibition of -10% or above?
## Result 0.0

## Task Is growth inhibition at least -10%? Consider O=C1NC(=O)C2C3C=CC(C3)C12 (stereo not given)
## Result 1.0

## Task Does the reported growth inhibition for "CC(C)NC(=O)OCc1c(COC(=O)NC(C)C)c(-c2ccc(Cl)c(Cl)c2)n2c1CCC2" fall at or above the -10% mark?
## Result 0.0

## Task Form field: growth inhibition at least -10%? Entry: c1ccc2c(c1)-c1nc3ccccc3cc1C2N1CCOCC1 (stereo not given)
## Result 1.0

## Task For this compound, is measured growth inhibition -10% or higher? "c1ccc2c(c1)Oc1cccc3cccc-2c13"
## Result 1.0

## Task Exam item: decide whether the reported growth inhibition for "O=C(NCCCCNCCCNC(=O)c1cc(-c2ccccc2)nc2ccccc12)c1cc(-c2ccccc2)nc2ccccc12" is at least -10%.
## Result 1.0

## Task Decide: growth inhibition of "COC(=O)c1ccc(CCC2=CC(=O)C(Br)=CC2=O)cc1" >= -10%?
## Result 0.0

## Task Entry "S=c1[nH]nc(Nc2ccc(Cl)cc2)s1" : is its growth inhibition no less than -10%?
## Result 1.0

## Task Could you tell me if the measured growth inhibition of "O=C(NC(Nc1ccc(F)c(Cl)c1)(C(F)(F)F)C(F)(F)F)C(C(F)(F)F)C(F)(F)F" reaches -10% or more?
## Result 1.0

## Task Identify whether the reported growth inhibition of the following compound is -10% or greater: CCCCN1C(=O)N(c2ccc(OCC)cc2)C2N(CCCC)C1C(C)(C)C2(C)C (stereo not given)
## Result 1.0
